- assay-target: GNAQ (T96S) (Homo sapiens, UniProt P50148, T96S)
- Construct: BPS Bioscience (parental reporter cell line) 60406
- Sequence (P50148 1-359 T96S): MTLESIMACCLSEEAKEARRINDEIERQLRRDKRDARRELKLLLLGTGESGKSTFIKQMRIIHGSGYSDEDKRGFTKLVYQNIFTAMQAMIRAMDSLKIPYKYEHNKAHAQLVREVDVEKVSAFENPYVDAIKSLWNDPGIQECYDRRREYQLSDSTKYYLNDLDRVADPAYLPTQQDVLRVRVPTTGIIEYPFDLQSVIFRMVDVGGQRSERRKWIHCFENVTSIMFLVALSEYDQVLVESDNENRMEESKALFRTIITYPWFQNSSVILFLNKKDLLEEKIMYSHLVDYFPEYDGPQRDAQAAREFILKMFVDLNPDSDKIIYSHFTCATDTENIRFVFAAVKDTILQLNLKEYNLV
- procedure-text: SRE luciferase reporter gene-HEK293 cell line, GNAQ (T96S)
- Format: cell-based
- stated-conditions: Cell type T96S; analytical concentration 2,700 nM; 20% FBS induction; read-out: GNAQ inhibitory rate
property-name: inhibition at 2.7 µM

Some solved entries appear below for comparison.
O=C(Nc1ccc(-c2ccnc(-c3cccc(C(F)(F)F)c3)n2)cc1)Nc1ccc(Cl)c(C(F)(F)F)c1 [Compound 8]	< 10%
O=C(Nc1cccc(-c2ccnc(-c3ccnc(Cl)c3)n2)c1)Nc1cc(Cl)nc(Cl)c1 [Compound 1]	10 to 39%
O=C(Nc1ccc(-c2cccc(-c3ccncc3)n2)cc1)Nc1ccc(Cl)c(C(F)(F)F)c1 [Compound 12]	40 to 70%

Q. inhibition at 2.7 µM of O=C(Nc1cccc(-c2cccc(-c3ccncc3)n2)c1)Nc1cc(Cl)nc(Cl)c1 [Compound 13] on GNAQ (T96S) (Homo sapiens, UniProt P50148, T96S)?
A. 40 to 70%

---

The molecules listed here are annotated with their CC50 at 5 days.
- procedure-text: Half cytotoxic concentration on normal mammary gland epithelial cells MCF-10A-5E (PrestoBlue)
- Format: cell-based
- stated-conditions: human, MCF-10A-5E normal mammary gland epithelial cells, 5 days culture, 10% horse serum, read-out: Non-toxicity (evaluated by CC50)

Consider the worked cases shown below.
O=C(Nc1ccc(-c2cccc(-c3cccc(C(F)(F)F)c3)n2)cc1)Nc1cc(Cl)nc(Cl)c1 [Compound 9]	10 to 20 µM
O=C(Nc1cccc(-c2cccc(-c3ccncc3)n2)c1)Nc1cc(Cl)nc(Cl)c1 [Compound 13]	> 20 µM
FC(F)(F)c1cccc(-c2cccc(-c3ccc(NC(=S)Nc4cc(Cl)nc(Cl)c4)cc3)n2)c1 [Compound 10]	> 20 µM
O=C(Nc1ccc(-c2nc(-c3ccccc3)ncc2Cl)cc1)Nc1cc(Cl)nc(Cl)c1 [Compound 15]	10 to 20 µM

Field: next molecule
Q. # lookup: CC50 at 5 days of O=C(Nc1cccc(-c2ccnc(-c3ccnc(Cl)c3)n2)c1)Nc1cc(Cl)nc(Cl)c1 [Compound 1]
A. > 20 µM

---

Listing: inhibition at 8.1 µM of selected molecules
- assay-target: GNAQ (T96S) (Homo sapiens, UniProt P50148, T96S)
- Construct: BPS Bioscience (parental reporter cell line) 60406
- Sequence (P50148 1-359 T96S): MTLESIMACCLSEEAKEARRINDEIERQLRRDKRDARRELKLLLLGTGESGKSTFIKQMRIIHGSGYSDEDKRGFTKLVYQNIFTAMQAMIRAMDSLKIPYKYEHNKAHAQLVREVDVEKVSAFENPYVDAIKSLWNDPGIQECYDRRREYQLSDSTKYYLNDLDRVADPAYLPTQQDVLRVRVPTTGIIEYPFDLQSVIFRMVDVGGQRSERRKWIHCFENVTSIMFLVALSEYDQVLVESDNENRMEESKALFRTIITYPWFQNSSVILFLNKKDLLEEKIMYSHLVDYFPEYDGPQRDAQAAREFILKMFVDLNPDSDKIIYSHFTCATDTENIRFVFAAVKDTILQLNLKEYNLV
- procedure-text: SRE luciferase reporter gene-HEK293 cell line, GNAQ (T96S)
- Format: cell-based
- stated-conditions: Cell type T96S; analytical concentration 8,100 nM; 20% FBS induction; read-out: GNAQ inhibitory rate

Here's what some known entries look like.
O=C(Nc1ccc(-c2nc(-c3ccccc3)ncc2Cl)cc1)Nc1cc(Cl)nc(Cl)c1 [Compound 15]	40 to 70%
O=C(Nc1cccc(-c2ccnc(-c3cccc(C(F)(F)F)c3)n2)c1)Nc1cc(Cl)nc(Cl)c1 [Compound 2]	> 70%
O=C(Nc1ccc(-c2ccnc(-c3cccc(C(F)(F)F)c3)n2)cc1)Nc1ccc(Cl)c(C(F)(F)F)c1 [Compound 8]	10 to 39%

Now for the molecule whose inhibition at 8.1 µM we want.
Q. Give its inhibition at 8.1 µM value. Item: O=C(Nc1cccc(-c2ccnc(-c3ccnc(Cl)c3)n2)c1)Nc1cc(Cl)nc(Cl)c1 [Compound 1]
A. > 70%
